Target: Gal4 DNA binding domain fused to the LBD of LXRβ in HEK293 cells (Homo sapiens (Human), UniProt P55055)
Sequence (P55055 222-460 limits assumed): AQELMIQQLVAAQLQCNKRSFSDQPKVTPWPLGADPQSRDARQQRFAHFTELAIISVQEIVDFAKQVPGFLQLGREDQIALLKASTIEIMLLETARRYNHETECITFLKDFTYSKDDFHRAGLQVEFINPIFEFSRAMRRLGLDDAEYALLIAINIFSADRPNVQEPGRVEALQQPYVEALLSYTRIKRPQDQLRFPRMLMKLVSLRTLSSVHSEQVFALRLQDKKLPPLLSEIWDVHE
Assay: cell-based
In this section, each of the compounds is paired with its reported log10 EC50.
Recall that a logarithmic scale is used here: each number is log10 of EC50 in nM.

Example entries and their recorded answers appear below.
COMPOUND: CS(=O)(=O)c1cccc(N2CCN(CC3CCN(CC(F)(F)F)CC3)[C@@H](c3ccccc3Cl)C2)c1 (single isomer, unassigned)
NUMBER: 2.74
//
COMPOUND: CC(C)[C@@H]1CN(c2ccc(F)c(S(C)(=O)=O)c2)CCN1c1ccc(C(C)(O)C(F)(F)F)cn1 (stereo partly drawn)
NUMBER: 2.65
//
COMPOUND: CC(C)[C@@H]1CN(c2cc(F)c(CO)c(S(C)(=O)=O)c2)CCN1c1ncc(CO)c(C(F)(F)F)n1
NUMBER: 1.20
//
COMPOUND: CC(C)[C@@H]1CN(c2ccc(F)c(S(C)(=O)=O)c2)CCN1c1ncc(CN2CCOCC2)c(C(F)(F)F)n1
NUMBER: 1.56
//
COMPOUND: CS(=O)(=O)c1cccc(N2CCN(Cc3ccc(OC(F)(F)F)cc3)[C@H](c3ccccc3)C2)c1 (single isomer, unassigned)
NUMBER: 3.32
//
COMPOUND: CC(C)[C@@H]1CN(c2ccc(F)c(S(C)(=O)=O)c2)CCN1c1nccc(C(N)=O)n1
NUMBER: 3.24
//
COMPOUND: CC(C)[C@@H]1CN(c2ccc(F)c(S(C)(=O)=O)c2)CCN1C(=O)OC(C)C(F)(F)F (stereo partly drawn)
NUMBER: 2.30
//
COMPOUND: CC(C)(O)CC1CN(c2ccc(F)c(S(C)(=O)=O)c2)CCN1c1ccc(C(F)(F)F)cn1 (stereo not drawn)
NUMBER: 2.83
//
COMPOUND: CC(C)[C@@H]1CN(c2ccc(C(N)=O)c(S(C)(=O)=O)c2Cl)CCN1c1nccc(C(F)(F)F)n1
NUMBER: 3.23
//
COMPOUND: CC(C)[C@H]1CN(c2cccc(S(C)(=O)=O)c2)CCN1Cc1ccc(C(F)(F)F)nc1
NUMBER: 2.75

Could you now look at the following compound, please?
Which log10 EC50 value belongs to COC(=O)c1cc(CN2CCN(c3cccc(S(C)(=O)=O)c3)CC2c2ccccc2)ccc1C(F)(F)F (stereo not drawn) ?
3.68

* * *

In this section, each of the molecules is paired with its reported EC50.
Molecular target: Gal4 DNA binding domain fused to the LBD of LXRβ in HEK293 cells (Homo sapiens (Human), UniProt P55055)
Assay: cell-based
State just the number; it will be interpreted in µM.

MOLECULE: CNS(=O)(=O)c1cc(N2CCN(c3ncc(C(C)=O)c(C(F)(F)F)n3)[C@H](C(C)C)C2)ccc1F
EC50 (µM): 0.033
--
MOLECULE: CC(C)[C@@H]1CN(c2ccc(F)c(S(C)(=O)=O)c2)CCN1c1ncc(CNS(C)(=O)=O)c(C(F)(F)F)n1
EC50 (µM): 0.198
--
MOLECULE: CS(=O)(=O)c1cccc(N2CCN(CC3(F)CCN(CC(F)(F)F)CC3)[C@@H](c3ccccc3)C2)c1 (single isomer, unassigned)
EC50 (µM): 0.711

Could you now look at the following molecule, please?
Which EC50 value belongs to CC(C)[C@@H]1CN(c2ccc(CO)c(S(C)(=O)=O)c2)CCN1c1nc(C(F)(F)F)c(CO)s1 ?
0.292

Data credit: patent US10144715B2
